Target: hA2AAR (Homo sapiens, UniProt P29274)
Construct: expressed in transfected cells; host or cells: HEK293
Sequence (P29274 whole entry): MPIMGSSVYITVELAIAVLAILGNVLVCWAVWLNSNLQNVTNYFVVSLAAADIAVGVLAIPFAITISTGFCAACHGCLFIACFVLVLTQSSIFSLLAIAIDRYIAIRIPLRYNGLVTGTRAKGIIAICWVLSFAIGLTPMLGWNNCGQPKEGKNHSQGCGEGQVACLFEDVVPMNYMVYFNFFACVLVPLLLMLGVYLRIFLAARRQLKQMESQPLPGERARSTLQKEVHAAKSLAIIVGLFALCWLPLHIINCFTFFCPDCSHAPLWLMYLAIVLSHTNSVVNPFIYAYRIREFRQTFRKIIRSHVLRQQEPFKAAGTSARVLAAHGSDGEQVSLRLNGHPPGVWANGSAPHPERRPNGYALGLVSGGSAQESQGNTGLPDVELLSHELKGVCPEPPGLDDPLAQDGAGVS
Assay: Radioligand binding in membranes of HEK293 cells expressing hA2AAR
Details: read-out: A2AAR % inhibition
MEASUREMENT KIND: inhibition at 10 µM (%)

Example entries begin here.
OC[C@@]12C[C@@H]1[C@@H](n1cnc3c(NC(C4CCC4)C4CCC4)ncnc31)[C@H](O)[C@@H]2O [Compound 24]	34
Nc1ncnc2c1ncn2[C@@H]1O[C@H](C(=O)O)[C@@H](O)[C@H]1O [Compound 14]	11

I. CCOC(=O)[C@@]12C[C@@H]1[C@@H](n1cnc3c(NC(C4CC4)C4CC4)nc(Cl)nc31)[C@@H]1OC(C)(C)O[C@@H]12 [Compound 33]
II. O[C@H]1[C@H](n2cnc3c(NC(C4CCC4)C4CCC4)nc(Cl)nc32)[C@H]2C[C@@]2(CSc2ccccc2F)[C@H]1O [Compound 28]
Challenge: For this pair, I and II , which shows a numerically higher inhibition at 10 µM? Mark your selection by writing its label.
Response given: II
(II: 22%, I: 15%)

* * *

Target: UniProt:Q61618
Sequence (Q61618 1-319): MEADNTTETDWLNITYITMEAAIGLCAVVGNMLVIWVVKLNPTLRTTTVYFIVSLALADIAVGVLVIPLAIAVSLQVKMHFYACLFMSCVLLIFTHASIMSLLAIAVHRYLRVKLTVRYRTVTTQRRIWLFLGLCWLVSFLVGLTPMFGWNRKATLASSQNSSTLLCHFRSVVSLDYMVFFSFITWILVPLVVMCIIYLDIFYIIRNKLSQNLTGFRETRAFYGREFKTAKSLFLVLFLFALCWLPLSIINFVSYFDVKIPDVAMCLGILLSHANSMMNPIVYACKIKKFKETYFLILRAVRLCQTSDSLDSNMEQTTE
Assay: Adenosine receptor binding, mA3AR
Conditions: (m); Ki; read-out: A3AR % inhibition or Ki (converted)
MEASUREMENT KIND: Ki (µM)

O[C@H]1[C@H](n2cnc3c(N[C@H]4C[C@H]5CC[C@@H]4C5)nc(Cl)nc32)[C@H]2C[C@@]2(CCl)[C@H]1O [Compound 31]	0.503

1. O=C(NCCO)[C@@]12C[C@@H]1[C@@H](n1cnc3c(N[C@H]4C[C@H]5CC[C@@H]4C5)nc(Cl)nc31)[C@H](O)[C@@H]2O [Compound 37]
2. O[C@H]1[C@H](n2cnc3c(NC(C4CCC4)C4CCC4)nc(Cl)nc32)[C@H]2C[C@@]2(CSc2ccccc2F)[C@H]1O [Compound 28]
Challenge: For this pair, 1 and 2 , which shows a numerically higher Ki? Mark your selection by writing its label.
Response given: 2
(2: 7.44 µM, 1: 0.447 µM)

* * *

Biological target: mA3AR (Mus musculus)
Assay: Adenosine receptor binding, mA3AR
Details: (m); Ki; read-out: A3AR % inhibition or Ki (converted)
Reported Ki values for the following compounds.
Express it in nM; write the number only.

Example entries begin here.
CCSC[C@H]1O[C@@H](n2cnc3c(NC(C4CCC4)C4CCC4)ncnc32)[C@H](O)[C@@H]1O	718
O[C@H]1[C@H](n2cnc3c(NC(C4CCC4)C4CCC4)ncnc32)[C@H]2C[C@@]2(CCl)[C@H]1O	934
OC[C@H]1O[C@@H](n2cnc3c(NC(C4CCC4)C4CCC4)nc(Cl)nc32)[C@H](O)[C@@H]1O	653
O[C@@H]1[C@H](O)[C@@H](CCl)O[C@H]1n1cnc2c(NC(C3CCC3)C3CCC3)ncnc21	2110

Could you now consider this next compound?
Challenge: Entry under review: OC[C@H]1O[C@@H](n2cnc3c(NC(C4CCC4)C4CCC4)ncnc32)[C@H](O)[C@@H]1O . Reported Ki?
Response given: 897
